System: SR leukemia
Test: NCI tumour cell line growth inhibition, 48 h

smilesEntry: Oc1ccc(C(c2ccc(O)cc2)c2ccc(Cl)cn2)cc1
measuredOn: SR leukemia
GI50: 29.5 µM

smilesEntry: CN1CCN(c2ccc(NC(=O)c3nc4ccc5[nH]ncc5c4c4c3CCCC4)cc2C(F)(F)F)CC1
measuredOn: SR leukemia
GI50: 0.9 µM

smilesEntry: CCCc1c(CC)c(=N)c2ccccc2n1C
measuredOn: SR leukemia
GI50: > 100 µM

smilesEntry: Cc1ccc(S(=O)(=O)NCCNC2=CC(=O)c3nc4ccccc4c4ccnc2c34)cc1
measuredOn: SR leukemia
GI50: 4.77 µM

smilesEntry: O=C1C(c2c[nH]c3ccccc23)=C(c2c[nH]c3ccccc23)C(=O)N1O
measuredOn: SR leukemia
GI50: > 25 µM

* * *

Quick record of GI50 values for MDA-MB-435.
reportedProperty: GI50

molecule: COc1ccc2c(c1)/C(=C\c1cccnc1)C(=O)N2
recordedMeasurement: 35.9 µM
//
molecule: CCCCCCCNc1nc(C(=O)OCC)ncc1-c1ccc(C(F)(F)F)cc1
recordedMeasurement: 32.1 µM
//
molecule: COc1ccc(C2SCC(=O)N2NC(=O)C(O)c2ccccc2)cc1OC (stereo not given)
recordedMeasurement: > 100 µM
//
molecule: O=C1C=C(NCCNC(=S)Nc2ccccc2)c2nccc3c2c1nc1ccccc13
recordedMeasurement: 15.6 µM
//
molecule: COc1ccc(Nc2ncc(Br)c(NCCCNC(=O)C3CCC3)n2)cc1
recordedMeasurement: 36.1 µM
//
molecule: CCOC(=O)C1(Br)C(c2ccccc2)NC(=O)NC1(C)Br (stereo not given)
recordedMeasurement: 20.5 µM
//
molecule: COc1ccc(N2Cc3cnc(Nc4ccccc4)nc3N([C@@H]3CC[C@@H](O)C3)C2=O)cc1
recordedMeasurement: 5.98 µM
//
molecule: COc1cc(CCN)c2c(c1OC)SSSSS2
recordedMeasurement: 1.63 µM
//
molecule: C=C1SC(=Nc2c(C)cc(C)cc2C)N(C(=O)c2sc3ccccc3c2Cl)C12CCCCC2
recordedMeasurement: > 100 µM
//
molecule: Cc1c(S(C)(=O)=O)c(-c2cc(F)cc(N3CCN(c4ccc(NS(=O)(=O)c5ccc(N[C@H](CCN6CCC(C(=O)OCCCP(=O)(O)O)CC6)CSc6ccccc6)c(S(=O)(=O)C(F)(F)F)c5)cc4)CC3)c2)c(-c2ccc(Cl)cc2)n1C(C)C
recordedMeasurement: > 100 µM

* * *

System: RXF 393 renal
Test: NCI tumour cell line growth inhibition, 48 h; in the data active = GI50 below about 0.43 µM; inactive = the rest
Labels: active, inactive

smilesEntry: CN1CCN(c2ccc(NC(=O)c3nc4ccc5[nH]ncc5c4c4c3CCCC4)cc2C(F)(F)F)CC1
measuredOn: RXF 393 renal
classification: inactive
--
smilesEntry: COc1ccc(N2Cc3cnc(Nc4ccccc4)nc3N([C@@H]3CC[C@@H](O)C3)C2=O)cc1
measuredOn: RXF 393 renal
classification: active
--
smilesEntry: C=CCN(/C=C1/C(=O)O[C@H](COC)[C@@]2(C)C1=C(O)C(=O)C1=C2[C@H](OC(C)=O)C[C@]2(C)C(=O)CC[C@@H]12)CC=C
measuredOn: RXF 393 renal
classification: active
--
smilesEntry: CCC(=O)O[C@H]1CC[C@H]2[C@@H]3CC[C@H]4CC(=O)[C@H](C)C[C@]4(C)[C@H]3CC[C@]12C
measuredOn: RXF 393 renal
classification: inactive
--
smilesEntry: O=C(Nc1ccc(F)cc1)c1ccc(NC2=C(Cl)C(=O)N(Cc3ccccc3)C2=O)cc1
measuredOn: RXF 393 renal
classification: inactive
--
smilesEntry: COc1cc2c(c(OC)c1OC)-c1ccc(N)c(=O)cc1[C@@H](NC(C)=O)CC2
measuredOn: RXF 393 renal
classification: active
--
smilesEntry: C=C1SC(=Nc2c(C)cc(C)cc2C)N(C(=O)c2sc3ccccc3c2Cl)C12CCCCC2
measuredOn: RXF 393 renal
classification: inactive
--
smilesEntry: Cc1ccc(/C(=N\N=C(N)N)c2ccccc2)cc1
measuredOn: RXF 393 renal
classification: active
